Values from patent US12103915B2

# maps each entry to its pIC50
- Test system: NCI-H226 cells
- experimentalDetails: Cell growth assay (CellTiter-Glo)
- Format: cell-based, human
- conditionSummary: Homo sapiens, NCI-H226, 168 h, 7 days treatment, CellTiter-Glo luminescence, read-out: H226 CTG IC50
pIC50: −log10 of the molar value.

Examples with answers:
molecule | observed
Cn1cc2cc(Oc3ccc(C(F)(F)F)c(F)c3)cc([C@@H]3C[C@H]3C(=O)N3C[C@@H]4C[C@H]3C[C@@H]4O)c2n1 (single isomer, unassigned) [Example 140] | > 7.00
CNC(=O)[C@@H]1CC1c1cc(Oc2ccc(C(F)(F)F)cc2)cc2c1cnn2C (mixture of isomers) [Example 36] | > 7.00
Cn1cc2cc(Oc3ccc(Cl)cc3)cc([C@@H]3C[C@H]3C(=O)N3C[C@@H]4C[C@H]3C[C@@H]4O)c2n1 (single isomer, unassigned) [Example 139] | > 7.00
CNC(=O)[C@@H]1CC1c1cc(Oc2ccc(C(F)(F)F)cc2)cc2cn(C(F)F)nc12 (mixture of isomers) [Example 79] | 6.30 to 7.00
O=C(O)[C@@H]1CC1c1cc(-c2ccc(C(F)(F)F)cc2)cc2[nH]ncc12 (mixture of isomers) [Example 5] | 4.52 to 6.00

The record that follows has no pIC50 shown yet.
Q) Look up pIC50: Cn1cc2cc(Oc3ccc(C(F)(F)F)cc3)cc(C3C[C@H]3C(=O)N3C[C@H]4C[C@@H]3C[C@@H]4O)c2n1 (single isomer, unassigned) [Example 103c]
A) > 7.00

---

- testTarget: TEAD1 (Homo sapiens, UniProt P28347)
- Sequence (P28347 whole entry, species assumed): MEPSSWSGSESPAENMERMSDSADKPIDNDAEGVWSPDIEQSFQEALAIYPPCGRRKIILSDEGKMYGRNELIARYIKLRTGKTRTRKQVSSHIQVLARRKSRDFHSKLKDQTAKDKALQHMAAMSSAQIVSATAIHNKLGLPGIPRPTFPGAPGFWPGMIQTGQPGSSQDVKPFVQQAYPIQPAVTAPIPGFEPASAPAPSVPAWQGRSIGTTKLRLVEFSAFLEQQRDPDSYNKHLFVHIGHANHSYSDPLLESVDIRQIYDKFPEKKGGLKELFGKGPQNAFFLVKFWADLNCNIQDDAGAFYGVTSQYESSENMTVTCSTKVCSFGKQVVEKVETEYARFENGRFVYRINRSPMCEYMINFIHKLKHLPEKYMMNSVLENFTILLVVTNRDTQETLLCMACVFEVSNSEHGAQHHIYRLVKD
- experimentalDetails: Thermal shift assay TEAD1
- Assay type: binding
Form field: TEAD1 ΔTm (one value per entry).
Give a bare numeral; the unit °C is implied.

molecule | testTarget | parameterMeasured | observed
CNS(=O)(=O)CCc1cc(Oc2ccc(C(F)(F)F)cc2)cc2c1NCCC2 [Example 143] | TEAD1 (Homo sapiens, UniProt P28347) | TEAD1 ΔTm | 9.6

Q) Query: TEAD1 ΔTm; subject: Cn1cc2cc(OC3CC4(C3)CC(F)(F)C4)cc(C3C[C@H]3C(=O)O)c2n1 (mixture of isomers) [Example 93]
A) 6.7

Q) Entry Cn1cc2cc(Oc3ccc(F)c(F)c3)cc([C@H]3C[C@@H]3C(=O)N3CC(O)C3)c2n1 (single isomer, unassigned) [Example 90b] has what TEAD1 ΔTm?
A) 7.7

Q) For Cn1cc2cc(Oc3ccc(C(F)(F)F)cc3)cc([C@@H]3C[C@H]3C(=O)N3CC(C#N)C3)c2n1 (single isomer, unassigned) [Example 70] , what is its reported TEAD1 ΔTm?
A) 8.4

Q) Using the record for Cn1cc2cc(Oc3ccc(C(F)(F)F)cc3)cc([C@@H]3C[C@H]3C(=O)NCC#N)c2n1 (single isomer, unassigned) [Example 66] , report its TEAD1 ΔTm.
A) 11.1

Q) Query: TEAD1 ΔTm; subject: O=C(O)[C@@H]1CC1c1cc(Oc2ccc(C(F)(F)F)cc2)cn2ccnc12 (mixture of isomers) [Example 83]
A) 2.7

Q) What value of TEAD1 ΔTm has been recorded for this entry: Cn1cc2cc(Oc3ccc(C(F)(F)F)cc3)cc(C3C[C@H]3C(=O)N3C[C@@H]4C[C@H]3C[C@@H]4O)c2n1 (single isomer, unassigned) [Example 103f]
A) 8.2

Q) May I ask what TEAD1 ΔTm has been recorded for Cn1cc2cc(Oc3ccc(C(F)(F)F)cc3)cc([C@@H]3C[C@H]3C(=O)N3CC[C@H](O)[C@@H](O)C3)c2n1 (single isomer, unassigned) [Example 75a] ?
A) 9.0

Q) Recorded TEAD1 ΔTm of Cn1cc2cc(Oc3ccc(C(F)(F)F)cc3)cc([C@@H]3C[C@H]3C(=O)N3CC(C)(O)C3)c2n1 (single isomer, unassigned) [Example 60] , please.
A) 9.5

Q) Name the recorded TEAD1 ΔTm for Cn1cc2cc(Oc3ccc(C(F)(F)F)cc3)cc(C3C[C@H]3C(=O)N3CC(C(=O)O)C3)c2n1 (single isomer, unassigned) [Example 113] .
A) 4.1
